test: NCI Yeast Anticancer Drug Screen. Data for the sgs1 mgt1 strain (AID 161); settings: S. cerevisiae sgs1 mgt1 strain, at 50.0 µM
About 79,000 compounds went through this panel and 15% of them were active in at least one assay; those are over-represented in the sample as a whole. Calls of active or inactive are those of the source. No stated cut-off is given here; in the data, active means growth inhibition above about 70%; inactive means the rest.
In this exercise, the only acceptable responses are Yes = active, No = inactive

molecule | category-label
O=[N+]([O-])c1ccc2c(c1)/C(=C/c1ccc(O)cc1)c1ccccc1-2 | Yes
Cc1cccc(C)c1O | Yes
OC(CCN1CCOCC1)(c1cccc(Cl)c1)C1CCCCC1 (stereo unspecified) | No
CC(C)(C)OC(=O)N(CCCCNCc1ccc2ccccc2c1)CCCNCc1ccc2ccccc2c1 | Yes
C/C(=N\NC(=S)N1CCN(c2ccccc2)CC1)c1nccs1 | Yes

Hi, do you know how "Oc1cc(Br)ccc1/C=N/Nc1ccccn1" came out in this test?
No

Param item: CCN(CC)CCCOC(=O)C(c1ccccc1)C1CCCCC1 (stereo unspecified)
Yes

And "Cc1ccc(C2=Nc3c(c(C)nn3-c3ccccc3)N=C(C(=O)O)C2)cc1" ?
Yes

Quick one: CCCN(CCC)CC(O)c1ccc2ccc3ccc(Cl)cc3c2c1 (stereo unspecified)
Yes

Can you check "COc1ccccc1NC(=O)O/N=C(/Cl)C(C)C" next?
No

Queued: "C=Nc1ccc2ccccc2c1Cc1c(O)ccc2ccccc12"
Yes
